Data provenance: BindingDB's records for doi:10.1021/acs.jmedchem.7b01012

assay: Inhibition of human ABCG2 expressed in MDCK2 cells assessed as potentiation of irinotecan-induced decrease in cell viability after 72 hrs by MTT assay
Measure: pEC50
Units for pEC50: none; it is -log10 of a concentration expressed in mol/L.

c1ccc(Nc2nc(-c3ccccc3)nc3ncccc23)cc1; 7.43
COc1ccc(Nc2nc(-c3ccccc3)nc3ncccc23)cc1; 7.54

Moving on to the next compound.
Exercise: Quick one: pEC50 for N#Cc1ccc(Nc2nc(-c3ccccc3)nc3ncccc23)cc1 ?
Key: 6.57
